- System: MDA-MB-453
- Experimental context: 72 h
Known EC50, CellTiter-Blue viability of a selection of compounds
Report only the number, with the unit µM understood.

COc1cc(Nc2c(C#N)cnc3cc(OCCCN4CCN(C)CC4)c(OC)cc23)c(Cl)cc1Cl; 2.67
CCNC(=O)c1noc(-c2cc(C(C)C)c(O)cc2O)c1-c1ccc(CN2CCOCC2)cc1; 0.0153
COc1ccc(S(=O)(=O)Nc2cccnc2Nc2ccc(O)cc2)cc1; 0.114
C/C(=C\c1csc(C)n1)[C@@H]1C[C@@H]2O[C@]2(C)CCC[C@H](C)[C@H](O)[C@@H](C)C(=O)C(C)(C)[C@@H](O)CC(=O)N1 [Ixabepilone]; 0.515

Lab note: O=C(CCCCCCC(=O)Nc1ccccc1)NO gave EC50, CellTiter-Blue viability of 0.96

Lab note: CNC(=O)c1ccccc1Sc1ccc2c(/C=C/c3ccccn3)n[nH]c2c1 gave EC50, CellTiter-Blue viability of 0.657

====

- Tested on: BT-549
- Assay text: normalised viability (% of control), CellTiter-Blue; higher = more viable cells (about 100 = DMSO control)
- Experimental context: 10000 nM; incubation time: 72 h
Quick reference for normalised viability among some compounds

Solved entries (count: 3):
CNC(=O)c1ccccc1Sc1ccc2c(/C=C/c3ccccn3)n[nH]c2c1; 42.5%
COc1cc(Nc2c(C#N)cnc3cc(OCCCN4CCN(C)CC4)c(OC)cc23)c(Cl)cc1Cl; 6.38%
CC(O)(CS(=O)(=O)c1ccc(F)cc1)C(=O)Nc1ccc(C#N)c(C(F)(F)F)c1 (stereo unspecified) [Bicalutamide]; 87.2%

get_value(item= CN(Cc1cnc2nc(N)nc(N)c2n1)c1ccc(C(=O)N[C@@H](CCC(=O)O)C(=O)O)cc1 [Methotrexate] , readout=normalised viability) returns 95.7%

normalised viability recorded for this compound, CC1(C)CCC(c2ccc(Cl)cc2)=C(CN2CCN(c3ccc(C(=O)NS(=O)(=O)c4ccc(N[C@H](CCN5CCOCC5)CSc5ccccc5)c(S(=O)(=O)C(F)(F)F)c4)cc3)CC2)C1 , is 78.1%

Form: compound = CO[C@@H]1[C@H](N(C)C(=O)c2ccccc2)C[C@H]2O[C@]1(C)n1c3ccccc3c3c4c(c5c6ccccc6n2c5c31)C(=O)NC4 ; normalised viability = 18.7%

====

- System: BT-474
- Assay text: normalised response (% of control), CellTiter-Glo; higher = more viable cells (100 = DMSO, 0 = benzethonium chloride kill control)
- Experimental context: incubation time: 72 h
Each item that follows carries a reported normalised response.
// note: answer is a bare numeric in %

The following molecules have reported results that may help.
COc1ccc(S(=O)(=O)Nc2cccnc2Nc2ccc(O)cc2)cc1 [ABT-751] (1 nM); 98.9
CO[C@@H]1[C@H](N(C)C(=O)c2ccccc2)C[C@H]2O[C@]1(C)n1c3ccccc3c3c4c(c5c6ccccc6n2c5c31)C(=O)NC4 [Midostaurin] (1 nM); 97.3
C/C(=C\c1csc(C)n1)[C@@H]1C[C@@H]2O[C@]2(C)CCC[C@H](C)[C@H](O)[C@@H](C)C(=O)C(C)(C)[C@@H](O)CC(=O)N1 [Ixabepilone] (100 nM); 103
Cn1cc(C2=C(c3cn(C4CCN(Cc5ccccn5)CC4)c4ccccc34)C(=O)NC2=O)c2ccccc21 [Enzastaurin] (1000 nM); 93.1
CC(O)(CS(=O)(=O)c1ccc(F)cc1)C(=O)Nc1ccc(C#N)c(C(F)(F)F)c1 (stereo not drawn) [Bicalutamide] (1000 nM); 110
CN[C@@H](C)C(=O)N[C@H]1CN(C(=O)CC(C)C)CC[C@H]2CC[C@@H](C(=O)NC(c3ccccc3)c3ccccc3)N2C1=O [AT-406] (1000 nM); 24.8
CC(=O)[C@]1(O)Cc2c(O)c3c(c(O)c2[C@@H](O[C@H]2C[C@H](N)[C@H](O)[C@H](C)O2)C1)C(=O)c1ccccc1C3=O [Idarubicin] (100 nM); 92.3
CC(C)n1cnc2c(NCCc3ccc(O)cc3)nc(-c3csc4ccccc34)nc21 [StemRegenin 1] (1 nM); 102

// field: normalised response; key: CC(C)(C)c1nc(-c2cccc(NS(=O)(=O)c3c(F)cccc3F)c2F)c(-c2ccnc(N)n2)s1 [Dabrafenib] (0.25 nM) ; value = 98.9

normalised response recorded for this molecule, Cn1cc(C2=C(c3cn(C4CCN(Cc5ccccn5)CC4)c4ccccc34)C(=O)NC2=O)c2ccccc21 [Enzastaurin] (10 nM) , is 99.6
